assay.name: UKN4_HCS_LUHMES_cell_viability: Viability Assessment in the University of Konstanz (UKN) Leist Lab Neurite Outgrowth Assay in human LUHMES cells (UKN4) (AID 2284232)
Active and inactive are the calls of the source. Rule for the calls: active = hit-call score of the fitted dose curve at least 0.9, where 1 is the maximum; inactive = score below 0.9.
recorded.endpoint: AC50

Look over these answered cases.
> print(dat)
                                   compound      result.value
1  CCC(C)(C)C(=O)OC1=C(c2ccc(Cl)cc2Cl)C(=O)OC12CCCCC2          inactive
2  O=C(O)C(F)(F)C(F)(F)C(F)(F)C(F)(F)C(F)(F)C(F)(F)C(F)(F)F  89.4 µM (active)
3        COP(=S)(OC)Oc1ccc([N+](=O)[O-])cc1          inactive
4  ClC1C(Cl)C(Cl)C(Cl)C(Cl)C1Cl (stereo unspecified)          inactive
5      O=[N+]([O-])/N=C1\NCCN1Cc1ccc(Cl)nc1          inactive

AC50 for O=S1OCC2C(CO1)C1(Cl)C(Cl)=C(Cl)C2(Cl)C1(Cl)Cl (stereo unspecified) is 18.7 µM (active)

Just for reference, PubChem BioAssay (EPA / NIEHS) is where these values come from.
